Would you kindly list Km for each of these proteins?
- Substrate: CCCC(=O)Oc1ccc([N+](=O)[O-])cc1
- assaySummary: hydrolysis kinetics
- Type: biochemical, Archaeoglobus fulgidus
- appliedConditions: 37°C
One number for each entry, in µM.

// each listed protein needs a value for Km
1. AFEST (Archaeoglobus fulgidus DSM 4304; V293E) (protein, pET-28a(+) in E. coli BL21-CodonPlus(DE3), Ni-NTA purified; 5' primer starts … (MLDMPI)) MLDMPIDPVYYQLAEYFDSLPKFDQFSSAREYREAINRIYEERNRQLSQHERVERVEDRTIKGRNGDIRVRVYQQKPDSPVLVYYHGGGFVICSIESHDALCRRIARLSNSTVVSVDYRLAPEHKFPAAVYDCYDATKWVAENAEELRIDPSKIFVGGDSAGGNLAAAVSIMARDSGEDFIKHQILIYPVVNFVAPTPSLLEFGEGLWILDQKIMSWFSEQYFSREEDKFNPLASVIFADLENLPPALIITAEYDPLRDEGEVFGQMLRRAGVEASIVRYRGVLHGFINYYPELKAARDAINQIAALLVFD
2. AFEST (Archaeoglobus fulgidus DSM 4304) (protein, pET-28a(+) in E. coli BL21-CodonPlus(DE3), Ni-NTA purified; 5' primer starts … (MLDMPI)) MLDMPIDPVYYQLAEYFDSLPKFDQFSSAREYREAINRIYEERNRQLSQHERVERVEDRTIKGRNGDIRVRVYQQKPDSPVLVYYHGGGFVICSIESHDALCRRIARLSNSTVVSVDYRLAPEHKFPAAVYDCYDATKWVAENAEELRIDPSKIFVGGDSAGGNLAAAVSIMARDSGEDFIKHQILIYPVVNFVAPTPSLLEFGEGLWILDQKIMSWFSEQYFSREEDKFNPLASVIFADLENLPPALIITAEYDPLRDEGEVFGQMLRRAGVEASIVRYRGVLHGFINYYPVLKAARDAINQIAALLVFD
3. AFEST (Archaeoglobus fulgidus DSM 4304; F287Y/S94G) (protein, pET-28a(+) in E. coli BL21-CodonPlus(DE3), Ni-NTA purified; 5' primer starts … (MLDMPI)) MLDMPIDPVYYQLAEYFDSLPKFDQFSSAREYREAINRIYEERNRQLSQHERVERVEDRTIKGRNGDIRVRVYQQKPDSPVLVYYHGGGFVICGIESHDALCRRIARLSNSTVVSVDYRLAPEHKFPAAVYDCYDATKWVAENAEELRIDPSKIFVGGDSAGGNLAAAVSIMARDSGEDFIKHQILIYPVVNFVAPTPSLLEFGEGLWILDQKIMSWFSEQYFSREEDKFNPLASVIFADLENLPPALIITAEYDPLRDEGEVFGQMLRRAGVEASIVRYRGVLHGYINYYPVLKAARDAINQIAALLVFD
4. AFEST (Archaeoglobus fulgidus DSM 4304; V293G) (protein, pET-28a(+) in E. coli BL21-CodonPlus(DE3), Ni-NTA purified; 5' primer starts … (MLDMPI)) MLDMPIDPVYYQLAEYFDSLPKFDQFSSAREYREAINRIYEERNRQLSQHERVERVEDRTIKGRNGDIRVRVYQQKPDSPVLVYYHGGGFVICSIESHDALCRRIARLSNSTVVSVDYRLAPEHKFPAAVYDCYDATKWVAENAEELRIDPSKIFVGGDSAGGNLAAAVSIMARDSGEDFIKHQILIYPVVNFVAPTPSLLEFGEGLWILDQKIMSWFSEQYFSREEDKFNPLASVIFADLENLPPALIITAEYDPLRDEGEVFGQMLRRAGVEASIVRYRGVLHGFINYYPGLKAARDAINQIAALLVFD

Key:
12.13
22.47
15.42
9.74
